MDA-MB-435: reported GI50 for various compounds.

Worked examples, 6 compounds total:
- CC(=O)OCC(=O)O[C@@H]1C[C@]2(C(C)C)O[C@@]1(C)[C@@H]1CC[C@@H](C)[C@H]1[C@@H]2OC(=O)/C=C/c1ccccc1: 22000 nM
- Cn1cc(C2=C(c3cccnc3)C(=O)NC2=O)c2ccccc21: > 25000 nM
- CNC(=O)c1ccc2cc(C3(O)CCn4cncc43)ccc2c1 (stereo not given): > 100000 nM
- CC(=O)c1cc2c(cc1Nc1c3ccccc3nc3occ(Cl)c13)OCO2: 44.4 nM
- Cc1noc(C)c1-c1cc(O)cc(C(O)c2ccccc2)c1 (stereo not given): 3480 nM
- C=CC(C=O)C1(O)CCOC(=O)/C1=C\N (stereo not given): > 100000 nM

Item "N#Cc1ccc(N2Cc3ccccc3OC3=C2C(=O)c2c(O)ccc(O)c2C3=O)cc1" with MDA-MB-435 - GI50?
235 nM

Give MDA-MB-435 GI50 for "Oc1c(CN2CCCC2)cc(COCc2ccc(Br)cc2)c2cccnc12"
1490 nM

For the record "O=C(Nc1ccc(CN2CCOCC2)cc1)c1[nH]ncc1Nc1ncnc2sccc12" , what value of GI50 is listed for MDA-MB-435?
525 nM

Please provide the recorded GI50 for "C/C(=N\N=C(\[Se])N1CCN(c2ccccn2)CC1)c1ccccn1" , tested on MDA-MB-435.
96.7 nM

* * *

# Test system: UACC-62 melanoma
# ASSAY OVERVIEW: NCI tumour cell line growth inhibition, 48 h
REPORTED METRIC: TGI

Using the record for C=CC(C)(O)/C=C/C=C(\C)C(CC1OC1(C)C)OC(=O)/C(C)=C\C (stereo unspecified) , report its TGI.
> 100 µM

Reported TGI, compound "Cc1ccc(S(=O)(=O)/N=C(\N)N(C)N=O)cc1" : ____
> 100 µM

* * *

Listed below: TGI values for each entry.
# Test system: SF-268 CNS
# ASSAY OVERVIEW: NCI tumour cell line growth inhibition, 48 h

Some solved cases for reference:
- C=C1CCCCCCCCCCC12SCCC2CCCCSC (centres undefined): 67.4 µM
- O=[N+]([O-])c1ccc2c(N3CCC(CCCC4CCN(c5ncnc6cc([N+](=O)[O-])ccc56)CC4)CC3)ncnc2c1: > 100 µM
- CC(=O)C1=C(C)Cn2c(=O)c3ccccc3c(=O)n2C1: > 100 µM
- CC(=O)c1cccc(NC(=O)C(=O)C(C2OC(=O)c3ccccc32)[N+](=O)[O-])c1 (centres undefined): > 100 µM
- O=C(c1ccccc1)c1ccc(OCCOc2ccc(Nc3ccccc3)cc2)cc1: > 100 µM

Which TGI value belongs to "CN(C)c1ccc(/C=C(\C#N)c2nc3ccccc3n2C)cc1" ?
> 95.1 µM

Quick check: TGI of "COC(=O)Nc1nc2ccc(S(=O)(=O)n3nnc4ccccc43)cc2[nH]1" ?
> 100 µM

# get_value(readout='TGI', item= "O=S(=O)(O)c1ccc(-c2nnc(-c3ccccn3)nc2-c2ccc(S(=O)(=O)O)o2)o1" )
> 100 µM

Reported TGI, molecule "O=C(O)Cc1cccc2c1Oc1ccccc1S2" : ____
> 100 µM

* * *

// reported TGI per item
# System: ACHN renal
# ASSAY OVERVIEW: NCI tumour cell line growth inhibition, 48 h

TGI for "CC(=O)OC[C@@H]1[C@H]2CC[C@]3(C)[C@@H](OC(C)=O)CC[C@H]3[C@@H]2CC[C@H]1C1(C)SCCS1" ?
> 25 µM

Fill in: TGI of "COC(=O)Nc1nc2ccc(S(=O)(=O)n3nnc4ccccc43)cc2[nH]1" is ___
> 100 µM

Given "CN(C)c1ccc(/C=C2\N=C(c3ccc([N+](=O)[O-])cc3)OC2=O)cc1" , state its recorded TGI.
> 100 µM

For the compound shown here, "Cc1cccc(C(=O)/C=C/SC(=NC#N)SCc2ccccc2)c1" , give the reported TGI.
67 µM

Endpoint output: TGI of "Cn1nnnc1N/N=C/c1ccccc1" . Value?
> 10 µM

Please give the measured TGI for this compound: COC(=O)C1=C(C(=O)OC)C23CC1C1C(C(=O)OC)=C(C(=O)OC)C12C1C=CC3C2C(=O)OC(=O)C21 (stereo unspecified)
> 100 µM

* * *

# Tested on: HOP-92 NSCLC
# ASSAY OVERVIEW: NCI tumour cell line growth inhibition, 48 h; in the data active = GI50 below about 0.43 µM; inactive = the rest
Select the matching outcome among class 1 for active, class 0 for inactive

What call does the record list for "C1C[S][Ge]2([S]CCO1)[S]CCOCC[S]2" ?
class 0

Could you please tell me the result logged for "O=C1c2ccccc2C(=Cc2ccccc2)c2ccccc21" in this assay?
class 0

Which outcome was assigned to "CCOC(=O)c1c2c(n(Cc3ccccc3)c1C)-c1ccccc1C(=O)C2=O" in this test?
class 0

Look up the recorded call for "COC(=O)c1ccc(NC(=O)Nc2ccc3oc(=O)c4ccccc4c3c2)cc1" in this test.
class 0

Record lookup: outcome of this test for "O=C(Nc1cccc(Oc2nnc(Cl)c3ccccc23)c1)Nc1ccc(Cl)c(C(F)(F)F)c1" ?
class 1

Give the logged outcome of this assay for the following compound: "C/C(=C\C1=C(Cl)C(=O)c2ccccc2C1=O)C(=O)O"
class 0

Please state the recorded outcome for this compound: "Oc1ccc(O)c(-c2cc(-c3ccccc3)nn2-c2ccccc2)c1"
class 0

Record request — test call for "CCOC(=O)/C=C/c1cc2cc(-c3csc4ccccc34)ccc2[nH]1"
class 0

GET /call?item= "C/C(=N\N=C(\[Se])N1CCN(c2ccccn2)CC1)c1ccccn1" returns the recorded outcome of this test.
class 1

Dear colleague, could you share the recorded outcome for CCN1C(=O)NC(=O)C(C)(N2C(=O)c3c(F)c(F)c(F)c(F)c3C2=O)C1=O (centres undefined) when you have a moment?
class 0

Each compound tested received a call. Report the one for "O=C(CN1CCN(c2ccc(Cl)cc2)CC1)N1CCN(c2nnc(-c3ccc(Cl)cc3)c(-c3ccc(Cl)cc3)n2)CC1" .
class 0

Called result for "O=C(Nc1ccc(CN2CCOCC2)cc1)c1[nH]ncc1Nc1ncnc2sccc12"
class 0

Per the assay record, what outcome was assigned to "O=C(CSC(c1ccccc1)c1ccccc1)N/N=C/c1cccc(Cl)c1" ?
class 0

Dear colleague, could you share the recorded outcome for "CC(=O)OCC(=O)O[C@@H]1C[C@]2(C(C)C)O[C@@]1(C)[C@@H]1CC[C@@H](C)[C@H]1[C@@H]2OC(=O)/C=C/c1ccccc1" when you have a moment?
class 0

How did this test come out for "O=[N+]([O-])c1ccc2c(N3CCC(CCCC4CCN(c5ncnc6cc([N+](=O)[O-])ccc56)CC4)CC3)ncnc2c1" ?
class 0

Recorded call for "CN(C)c1ccc(/C=C(\C#N)c2nc3ccccc3n2C)cc1" ?
class 0

Please share the test call associated with "N#Cc1ccc(N2Cc3ccccc3OC3=C2C(=O)c2c(O)ccc(O)c2C3=O)cc1" .
class 1

Status in this test for "COc1cnc2c(c1)C(=O)c1c-2n(CCCN2CCC(O)CC2)c(=O)c2cc(F)ccc12" ?
class 1

For "O=C(Nc1ccc(Oc2ccc3nc(NC(=O)c4ccccc4)[nH]c3c2)cc1)Nc1cc(C(F)(F)F)ccc1F" , which call appears in the assay record?
class 0

* * *

In this section, each of the compounds is paired with its reported TGI.
# Tested on: OVCAR-8 ovarian
# ASSAY OVERVIEW: NCI tumour cell line growth inhibition, 48 h
Give the value in µM but do not write µM after it.

Some compounds with recorded TGI:
* COc1cc(-c2cc(=O)c3c(O)c(OC)c(OC)c(OC)c3o2)ccc1O | 48.4
* CC1CCN(CCCCCOc2ccc3oc4cc(Cl)ccc4c(=O)c3c2)CC1 | 16
* c1ccc(-c2cc(C3CO3)c3ccccc3n2)cc1 (centres undefined) | 43.2

Which TGI reading was recorded for the compound "Nc1c(-c2nc3ccccc3o2)sc(=S)n1-c1ccc(Cl)cc1" ?
30.2

* * *

# Test system: SNB-19 CNS
# ASSAY OVERVIEW: NCI tumour cell line growth inhibition, 48 h
REPORTED METRIC: TGI

• Cc1ccc(Nc2n[nH]c(=S)s2)cc1 = > 100 µM
• CN(Cc1cnc2nc(N)nc(N)c2n1)c1ccc(C(=O)NCS(=O)(=O)O)cc1 = > 100 µM
• COc1ccc(C2=NN(C(=O)c3cc(OC)c(OC)c(OC)c3)C(c3ccc(Cl)cc3)C2)cc1OC (stereo unspecified) = 44 µM

Look up TGI: "CCOC(=O)Nc1cc2c(c(N)n1)N=C(c1ccccc1)[C@H](C)N2"
87.5 µM

Entry under review: CSCCC(N)P(C)(=O)O (stereo unspecified) . Reported TGI?
> 100 µM

* * *

# Test system: A498 renal
# ASSAY OVERVIEW: NCI tumour cell line growth inhibition, 48 h
REPORTED METRIC: GI50

Worked cases, GI50 given:
* COc1cccc2c1-c1c(c3ccc([N+](=O)[O-])cc3c(=O)n1CCCCl)C2=O | 17.4 µM
* Cn1cc(C2=C(c3cccnc3)C(=O)NC2=O)c2ccccc21 | 9.03 µM
* O=C([O][Hg][CH2]C1COC([CH2][Hg][O]C(=O)c2ccccc2)CO1)c1ccccc1 (centres undefined) | 18.8 µM

Value lookup for GI50; key = CCOC(=O)C1=C(C)NC2SC(=O)/C(=C\c3ccccc3O)N2C1c1ccccc1 (centres undefined)
11.1 µM
